Entry source: patent US20240294661A1

For each record, write down the corresponding IC50 of cell killing, NCI-H441 cells, ADC killing assay.
TARGET_DESC: membrane-bound tissue factor (TF) on cells (human, UniProt P13726 33-295)
MEASUREMENT_DESCRIPTION: cell-based or functional assay
Answers are plain numbers, in ng/mL.

In the examples that follow, each entry is paired with its recorded IC50 of cell killing, NCI-H441 cells, ADC killing assay.
{"columns": ["BINDER", "NUMERIC_VALUE"],
 "data": [
  ["HuMab-TF-098-mcMMAF (antibody, IgG1, V domains shown, mcMMAF drug-linker alkylated to cysteines of the reduced antibody (positions not given), DAR 4.0 by RP-HPLC, 3.9 by HIC) VH: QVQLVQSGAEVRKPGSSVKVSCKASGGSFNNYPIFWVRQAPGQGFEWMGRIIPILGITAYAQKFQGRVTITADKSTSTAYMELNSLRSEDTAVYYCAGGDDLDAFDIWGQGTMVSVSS VL: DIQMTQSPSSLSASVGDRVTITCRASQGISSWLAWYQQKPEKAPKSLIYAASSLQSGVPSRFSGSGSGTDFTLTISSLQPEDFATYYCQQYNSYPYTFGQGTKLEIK", 4],
  ["HuMab-TF-111-mcMMAF (antibody, IgG1, V domains shown, mcMMAF drug-linker alkylated to cysteines of the reduced antibody (positions not given), DAR 4.1 by RP-HPLC, 4.2 by HIC) VH: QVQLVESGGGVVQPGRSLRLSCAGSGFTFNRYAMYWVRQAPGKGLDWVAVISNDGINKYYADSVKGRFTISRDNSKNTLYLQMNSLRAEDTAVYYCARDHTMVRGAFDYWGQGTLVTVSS VL: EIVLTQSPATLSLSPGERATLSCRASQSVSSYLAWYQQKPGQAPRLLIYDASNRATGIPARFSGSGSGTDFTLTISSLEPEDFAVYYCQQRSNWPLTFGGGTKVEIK", 416]
]}

HuMab-TF-011-mcMMAF (antibody, IgG1, V domains shown, mcMMAF drug-linker alkylated to cysteines of the reduced antibody (positions not given), DAR 3.9 by RP-HPLC, 4.1 by HIC) VH: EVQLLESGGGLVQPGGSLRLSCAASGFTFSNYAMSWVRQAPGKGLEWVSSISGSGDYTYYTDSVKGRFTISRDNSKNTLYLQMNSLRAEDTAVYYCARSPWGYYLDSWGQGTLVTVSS VL: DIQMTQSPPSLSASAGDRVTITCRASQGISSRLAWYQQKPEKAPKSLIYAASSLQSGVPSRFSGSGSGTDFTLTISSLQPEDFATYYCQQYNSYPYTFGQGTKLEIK yielded IC50 of cell killing, NCI-H441 cells, ADC killing assay of 5
